assay.target: Serine/threonine-protein kinase PAK 2 (Homo sapiens)
condition.parameters: at 0.1 µM
assay.readout: inhibition
# do not omit the unit; it follows the number

Exercise: GET inhibition where system = Serine/threonine-protein kinase PAK 2 (Homo sapiens) and item = NC(=O)c1cccc(Nc2nccc(Nc3cccc(F)c3)n2)c1
Solution: 0.32%

Exercise: Enter inhibition (test system Serine/threonine-protein kinase PAK 2 (Homo sapiens)) for COc1cc2ncnc(Nc3ccc4c(cnn4Cc4ccccc4)c3)c2cc1OC
Solution: 1.54%

Exercise: Quote inhibition with test system Serine/threonine-protein kinase PAK 2 (Homo sapiens) for c1ccc(Cc2nc3ccc(Nc4ncnc5ccccc45)cc3[nH]2)cc1
Solution: 2.47%

Exercise: Quote inhibition with test system Serine/threonine-protein kinase PAK 2 (Homo sapiens) for CCS(=O)(=O)c1ccc(OC)c(Nc2ncc(-c3cccc(OC)c3)o2)c1;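 further: values are mean percent inhibition of PAK2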
Solution: 2.79%

Exercise: Give inhibition for this entry on Serine/threonine-protein kinase PAK 2 (Homo sapiens): CN(C)c1cc2c(Nc3ccc4c(cnn4Cc4ccccc4)c3)ncnc2cn1
Solution: 0.73%

----------
# inhibition per entry
assay.target: Homeodomain-interacting protein kinase 1 (Homo sapiens) (UniProt Q86Z02);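 further: each value is a mean percent inhibition of HIPK1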
Sequence (Q86Z02 whole entry, looked up): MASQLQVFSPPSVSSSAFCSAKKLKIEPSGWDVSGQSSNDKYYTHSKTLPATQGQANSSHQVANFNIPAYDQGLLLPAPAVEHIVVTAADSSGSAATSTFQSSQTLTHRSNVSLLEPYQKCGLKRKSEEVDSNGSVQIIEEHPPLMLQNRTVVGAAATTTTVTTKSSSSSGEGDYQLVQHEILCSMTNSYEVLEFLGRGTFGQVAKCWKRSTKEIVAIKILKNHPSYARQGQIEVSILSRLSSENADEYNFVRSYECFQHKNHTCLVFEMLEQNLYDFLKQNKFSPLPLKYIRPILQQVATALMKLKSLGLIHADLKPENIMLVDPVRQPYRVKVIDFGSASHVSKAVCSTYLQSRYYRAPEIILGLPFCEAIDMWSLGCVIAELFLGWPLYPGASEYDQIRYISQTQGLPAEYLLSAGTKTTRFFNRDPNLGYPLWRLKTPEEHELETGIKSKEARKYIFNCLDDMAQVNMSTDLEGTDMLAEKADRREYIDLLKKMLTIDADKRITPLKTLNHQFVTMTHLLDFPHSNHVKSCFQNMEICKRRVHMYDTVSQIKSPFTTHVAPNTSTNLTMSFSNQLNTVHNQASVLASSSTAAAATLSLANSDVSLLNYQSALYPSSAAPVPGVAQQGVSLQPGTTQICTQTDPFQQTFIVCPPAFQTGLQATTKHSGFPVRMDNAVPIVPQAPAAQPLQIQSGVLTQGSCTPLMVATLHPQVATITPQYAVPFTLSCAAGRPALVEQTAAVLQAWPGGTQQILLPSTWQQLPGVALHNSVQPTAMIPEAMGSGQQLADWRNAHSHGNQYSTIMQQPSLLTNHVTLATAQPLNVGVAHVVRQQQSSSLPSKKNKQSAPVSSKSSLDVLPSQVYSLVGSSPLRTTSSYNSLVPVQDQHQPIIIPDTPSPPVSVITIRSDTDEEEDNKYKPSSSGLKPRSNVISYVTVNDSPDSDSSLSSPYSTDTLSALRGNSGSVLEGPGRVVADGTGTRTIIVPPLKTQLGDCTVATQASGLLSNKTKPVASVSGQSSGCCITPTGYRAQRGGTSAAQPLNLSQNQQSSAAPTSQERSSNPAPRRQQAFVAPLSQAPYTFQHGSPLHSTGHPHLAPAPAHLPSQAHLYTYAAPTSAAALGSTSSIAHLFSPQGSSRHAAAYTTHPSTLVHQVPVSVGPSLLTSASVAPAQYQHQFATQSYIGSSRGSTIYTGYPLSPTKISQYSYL
condition.parameters: at 0.1 µM
Please state the figure in %; there is no need to write the unit.

[
  {
    "given.smiles": "NS(=O)(=O)c1cccc(Nc2cc(-c3ccc(F)cc3)n[nH]2)c1",
    "assay.target": "Homeodomain-interacting protein kinase 1 (Homo sapiens) (UniProt Q86Z02)",
    "inhibition, %": 2.17
  },
  {
    "given.smiles": "Cc1cc(-c2ccccn2)cc(C)c1/C=C/c1cncc(-c2nn[nH]n2)c1",
    "assay.target": "Homeodomain-interacting protein kinase 1 (Homo sapiens) (UniProt Q86Z02)",
    "inhibition, %": 1.03
  },
  {
    "given.smiles": "CS(=O)(=O)Nc1cccc(-c2ccc3c(NC(=O)C4CC4)n[nH]c3c2)c1",
    "assay.target": "Homeodomain-interacting protein kinase 1 (Homo sapiens) (UniProt Q86Z02)",
    "inhibition, %": -3.76
  },
  {
    "given.smiles": "CN(C)c1cc2c(Nc3ccc4c(cnn4Cc4ccccc4)c3)ncnc2cn1",
    "assay.target": "Homeodomain-interacting protein kinase 1 (Homo sapiens) (UniProt Q86Z02)",
    "inhibition, %": -0.5
  },
  {
    "given.smiles": "O=C1Nc2ccc(-c3cccnc3)cc2C1=Cc1cc(Br)c(O)c(Br)c1",
    "assay.target": "Homeodomain-interacting protein kinase 1 (Homo sapiens) (UniProt Q86Z02)",
    "inhibition, %": 2.42
  }
]

Exercise: Find the measured inhibition of FC(F)(F)c1ccc(-c2nn3ncccc3c2-c2ccnc(Nc3ccc4c(c3)OCCO4)n2)cc1 and report it.
Solution: 9.14

Exercise: Identify the reported inhibition for the following entry. N#Cc1cccc(Nc2nccc(-c3cnn4ncccc34)n2)c1
Solution: 82.9

----------
The following compounds are listed with their measured inhibition values.
System: Serine/threonine-protein kinase B-raf (Homo sapiens), P15056 [V600E];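 further: mean inhibition of the BRAF V599E mutant, from GSK PKIS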
Sequence (P15056 whole entry V600E): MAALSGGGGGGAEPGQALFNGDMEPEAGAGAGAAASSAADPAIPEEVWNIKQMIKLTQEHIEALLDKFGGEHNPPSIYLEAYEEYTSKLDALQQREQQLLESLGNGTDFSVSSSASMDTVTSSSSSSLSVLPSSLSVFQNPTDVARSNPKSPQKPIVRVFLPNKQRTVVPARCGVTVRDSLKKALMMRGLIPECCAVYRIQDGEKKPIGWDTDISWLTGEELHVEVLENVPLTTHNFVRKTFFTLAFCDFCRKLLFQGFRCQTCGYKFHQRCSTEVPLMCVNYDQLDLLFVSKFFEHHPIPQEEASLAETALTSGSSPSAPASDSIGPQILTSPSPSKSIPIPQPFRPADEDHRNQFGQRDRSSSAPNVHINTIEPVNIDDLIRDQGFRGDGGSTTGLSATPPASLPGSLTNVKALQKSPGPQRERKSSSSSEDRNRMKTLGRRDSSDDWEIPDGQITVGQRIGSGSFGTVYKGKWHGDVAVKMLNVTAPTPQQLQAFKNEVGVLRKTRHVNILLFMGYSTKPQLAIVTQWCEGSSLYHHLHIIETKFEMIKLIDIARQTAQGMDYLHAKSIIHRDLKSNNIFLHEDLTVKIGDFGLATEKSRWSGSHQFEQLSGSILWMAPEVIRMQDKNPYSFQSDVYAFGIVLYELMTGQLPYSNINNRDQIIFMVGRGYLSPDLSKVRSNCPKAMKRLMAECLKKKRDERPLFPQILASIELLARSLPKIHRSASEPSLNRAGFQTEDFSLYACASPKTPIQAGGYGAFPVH
condition.parameters: at 0.1 µM
Description: GSK_PKIS: BRAF (V599E mutant) mean inhibition at 0.1 uM [Nanosyn]
Reply with just the number (in %).

[
  {
    "given.smiles": "COc1cc2ncnc(Nc3ccc(C)c(O)c3)c2cc1OC",
    "value.reported": 7.72
  }
]

Exercise: Report inhibition for O=C1Nc2ccc(-c3cccnc3)cc2C1=Cc1cc(Br)c(O)c(Br)c1
Solution: 8.84

Exercise: Query inhibition for CN1CCN(C(=O)c2ccc(NC(=O)Nc3ccc(N(C)c4ccnc(Nc5ccc(CS(C)(=O)=O)cc5)n4)cc3)cc2)CC1
Solution: 3.84

Exercise: Please report the measured inhibition for C[C@@H](Oc1cc(-n2cnc3ccc(OCC4CCN(C)CC4)cc32)sc1C(N)=O)c1ccccc1C(F)(F)F
Solution: -0.73
